- assay_system: NL20 human bronchial epithelial cells expressing human Z-AAT (Homo sapiens, UniProt P01009, E366K)
- Construct: doxycycline added with compounds)
- Sequence (P01009 25-418 E366K): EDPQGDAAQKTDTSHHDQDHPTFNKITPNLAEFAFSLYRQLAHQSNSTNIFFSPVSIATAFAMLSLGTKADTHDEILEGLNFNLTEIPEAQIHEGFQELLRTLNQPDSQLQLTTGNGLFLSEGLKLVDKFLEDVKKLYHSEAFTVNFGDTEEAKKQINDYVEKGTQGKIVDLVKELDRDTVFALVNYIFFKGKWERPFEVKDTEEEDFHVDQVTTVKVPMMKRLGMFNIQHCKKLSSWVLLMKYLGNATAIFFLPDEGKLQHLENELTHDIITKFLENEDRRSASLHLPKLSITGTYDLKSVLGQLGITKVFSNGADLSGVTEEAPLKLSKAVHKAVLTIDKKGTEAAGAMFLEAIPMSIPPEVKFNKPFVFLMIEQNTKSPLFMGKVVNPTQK
- experiment_description: AAT Function Assay (MSD Assay NL20-SI Cell Line)
- particulars: read-out: NL20 Functional EC50
Examples of molecules with documented EC50 follow.

Study these solved cases before continuing.
> print(dat)
                                   molecule  reported.value
1  O=C(NO)c1ccc(-c2c(C3CCOCC3)n(-c3ccc(F)c(F)c3)c3cccc(O)c23)cc1F     0.5 to 2 µM
2  COCC1(c2c(-c3ccc(C(=O)O)cc3)c3c(O)c(F)ccc3n2-c2ccc(F)c(F)c2)CCC1        < 0.5 µM
3  Cc1cc(-n2c(C3CCOCC3)c(-c3ccc(C(=O)O)cc3)c3c(O)cc(F)cc32)ccc1F        < 0.5 µM
4  Cc1cc(-n2c(C(C)C)c(-c3cc(C(=O)O)n(C)n3)c3cc(F)ccc32)ccc1F     0.5 to 2 µM
5  Cc1cc(-n2c(C(C)(C)CO)c(-c3ccc(C(=O)O)cc3)c3c(O)cccc32)ccc1F     0.5 to 2 µM

Q: Endpoint output: EC50 of `COCC(C)(C)c1c(-c2ccc(C(=O)O)cc2)c2c(O)c(F)ccc2n1-c1ccc(F)c(F)c1` . Value?
Result: < 0.5 µM

Q: Endpoint output: EC50 of `COc1cc(-n2c(C3(CC#N)CCC3)c(-c3ccc(C(=O)O)cc3)c3c(O)c(F)ccc32)ccc1F` . Value?
Result: < 0.5 µM

Q: Endpoint output: EC50 of CC1(c2c(-c3ccc(C(=O)O)cc3)c3c(O)cc(F)cc3n2-c2ccc(F)c(F)c2)CCOC1 (stereo not drawn) . Value?
Result: < 0.5 µM

Q: Endpoint output: EC50 of `[2H]C([2H])([2H])Oc1cc(-n2c(C3(COC)CCC3)c(-c3ccc(C(=O)O)c(OC)c3)c3c(O)cc(F)cc32)ccc1F` . Value?
Result: < 0.5 µM

Q: Endpoint output: EC50 of `Cc1cc(-n2c(C(C)(C)COc3ncccn3)c(-c3ccc(C(=O)O)cc3)c3c(O)c(F)ccc32)ccc1F` . Value?
Result: < 0.5 µM

Q: Endpoint output: EC50 of Cc1cc(-n2c(C(C)C)c(C3CC4(CC(C(=O)O)C4)C3)c3c(O)ccc(F)c32)ccc1F (stereo not drawn) . Value?
Result: > 2 µM

###

- assay_system: NL20 human bronchial epithelial cells expressing human Z-AAT (Homo sapiens, UniProt P01009, E366K)
- Construct: doxycycline added with compounds)
- experiment_description: AAT Function Assay (MSD Assay NL20-SI Cell Line)
- particulars: read-out: NL20 Functional EC50
measurement_name: EC50

Study these solved cases before continuing.
> print(dat)
                                   compound  measurement.name  reported.value
1  CC(C)(CC#N)c1c(-c2ccc(C(=O)O)cc2F)c2c(O)c(F)ccc2n1-c1ccc(F)cc1              EC50        < 500 nM
2  COc1cc(-n2c(C3CCCOCC3)c(-c3ccc(C(=O)O)cc3)c3c(O)cc(F)cc32)ccc1F (stereo not shown)              EC50        < 500 nM
3  CC(C)(CC#N)c1c(-c2ccc(C(=O)O)cc2)c2c(O)c(F)ccc2n1C1CCC(F)(F)CC1              EC50       > 2000 nM

Q: Endpoint output: EC50 of `Cc1cc(-c2c(C3CCOCC3)n(-c3ccc(F)cc3)c3cccc(O)c23)cnc1C(=O)O` . Value?
Result: > 2000 nM

All figures here come from patent US20230159502A1.
